Hello, the source for this data is PubChem BioAssay (NCI), in case you need it.

system: ACHN renal; assay: NCI tumour cell line growth inhibition, 48 h
Let's look at some molecules and their measured GI50.

* COc1cccc(-c2nc3sccn3c2-c2ccnc(NCCCNS(=O)(=O)c3cccc(F)c3)c2)c1 | 2.22 µM
* CCc1cccc(C)c1NC(=O)c1sc2nc3c(cc2c1N)CCCCC3 | 7.45 µM
* [Cl-].[O-]/N=C(\c1ccccc1)c1ccccn1.[O-]/N=C(\c1ccccc1)c1ccccn1.[O-]/N=C(\c1ccccc1)c1ccccn1.[Sm+3] | 29.3 µM

What measured GI50 is associated with `Cc1nn(-c2nc3ccccc3[nH]2)c(N)c1-c1ccc(Cl)cc1` on ACHN renal? 4.6 µM

What would you report for `COC(=O)c1c2c(c[n+]([O-])c1C)C(=O)C=CC2=O` ? 1.73 µM

`CCOc1ccc2nc(SCc3nc4n(n3)S(=O)(=O)c3ccccc3N4C)sc2c1` , same question. > 100 µM

Same read-out for `O=C1c2ccccc2-c2c1c1c(=O)[nH]c3ccccc3c1n2Cc1ccccc1` ? 13 µM

What about this molecule? `CO[C@H]1/C=C/O[C@@]2(C)Oc3c(C)c(O)c4c(c3C2=O)C(=O)C(/C=N/N(c2ccccc2)c2ccccc2)=C(NC(=O)/C(C)=C\C=C\[C@H](C)[C@H](O)[C@@H](C)[C@@H](O)[C@@H](C)[C@H](OC(C)=O)[C@@H]1C)C4=O` 1.74 µM
